# assayed-system: NDM-1 (Klebsiella pneumoniae, UniProt C7C422)
# Sequence (C7C422 whole entry, looked up, species assumed): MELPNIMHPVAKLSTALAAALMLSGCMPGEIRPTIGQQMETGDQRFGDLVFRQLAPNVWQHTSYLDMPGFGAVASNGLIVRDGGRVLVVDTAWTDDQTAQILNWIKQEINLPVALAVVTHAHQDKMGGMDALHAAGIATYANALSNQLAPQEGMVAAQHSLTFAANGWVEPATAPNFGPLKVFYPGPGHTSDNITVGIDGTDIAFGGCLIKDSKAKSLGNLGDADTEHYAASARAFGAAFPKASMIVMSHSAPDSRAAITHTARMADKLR
# measurement-protocol: biochemical
# Format: biochemical
# experimental-parameters: CCF2-FA substrate, 2 hours at 25° C; read-out: NDM-1 IC50
Below: a set of entries, each annotated with reported IC50.
Give just the number in pM; leave the unit off.

Consider the worked cases shown below.
### Prompt Consider the compound shown here: NCCS(=O)(=O)c1ccc(-c2cccc(-n3ccnc3)c2)c(-c2nnn[nH]2)c1S(N)(=O)=O What is its recorded IC50?
### Response 1960

### Prompt Tell me the measured IC50 of Cc1ccc(-c2ccc(S(=O)(=O)CCN)c(S(N)(=O)=O)c2-c2nn[nH]n2)c2nc(N)[nH]c12 , please.
### Response 123

### Prompt Tell me the measured IC50 of NS(=O)(=O)c1c(S(=O)(=O)C2CNC2)ccc(-c2ccc3ccncc3c2)c1-c1nnn[nH]1.O=C(O)C(F)(F)F [Example 131, 2,2,2-trifluoroacetate] , please.
### Response 345

### Prompt Query: IC50; subject: NCCS(=O)(=O)c1ccc(-c2cccc(NC(=O)CN)c2)c(-c2nn[nH]n2)c1S(N)(=O)=O
### Response 3440

Next:
### Prompt For the compound COc1ccc(Cc2cc3c(-c4ccc(S(=O)(=O)C5CNC5)c(S(N)(=O)=O)c4-c4nnn[nH]4)cccc3[nH]2)cc1 , what IC50 is on record?
### Response 102

### Prompt Quick one: IC50 of C[C@@H](CN)S(=O)(=O)c1ccc(-c2cccc3c2nc(N)n3C)c(-c2nn[nH]n2)c1S(N)(=O)=O ?
### Response 224

### Prompt IC50 for NCCS(=O)(=O)c1ccc(-c2cccc3[nH]c([C@H](N)CO)nc23)c(-c2nn[nH]n2)c1S(N)(=O)=O ?
### Response 404
